- measuredOn: human melanocortin-1 receptor hMCR-1 expressed by the human melanoma cell line HBL (human, UniProt Q01726 1-317)
- Sequence (Q01726 whole entry): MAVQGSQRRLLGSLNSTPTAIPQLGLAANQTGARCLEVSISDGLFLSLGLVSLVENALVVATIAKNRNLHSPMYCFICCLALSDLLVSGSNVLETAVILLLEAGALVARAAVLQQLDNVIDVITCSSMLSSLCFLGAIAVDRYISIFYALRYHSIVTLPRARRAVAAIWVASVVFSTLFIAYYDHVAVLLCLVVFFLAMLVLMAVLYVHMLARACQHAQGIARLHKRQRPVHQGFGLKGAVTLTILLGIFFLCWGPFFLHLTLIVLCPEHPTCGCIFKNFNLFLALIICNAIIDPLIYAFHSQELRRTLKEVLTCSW
- procedureDetails: cell-based or functional assay
Bridge positions count the residues as written; N and C are the ends. Square brackets hold non-standard residues; d marks the D form. dPhe(4-Cl) = N[C@H](Cc1ccc(Cl)cc1)C(=O)O; Nle = CCCC[C@H](N)C(=O)O; Orn = NCCC[C@H](N)C(=O)O; Dab = NCC[C@H](N)C(=O)O
metricName: MC-1 Emax (average; cAMP HBL) (%)
Reply numerically in %, unit not repeated.

These solved cases illustrate the format of a correct answer.
| binder | reportedValue |
| --- | --- |
| Ac-[Nle]E[Orn][dPhe(4-Cl)]R[Dab]-NH2 (lactam 2-6; SMILES CCCC[C@H](NC(C)=O)C(=O)N[C@H]1CCC(=O)NCC[C@@H](C(N)=O)NC(=O)[C@H](CCCNC(=N)N)NC(=O)[C@@H](Cc2ccc(Cl)cc2)NC(=O)[C@H](CCCN)NC1=O) [Ac-Nle-cyclo(Glu-Orn-D-Phe(4-Cl)-Arg-Dab)-NH2] | 100 |
| Ac-[Nle]EH[dF]R[Dab]K-NH2 (lactam 2-6; SMILES CCCC[C@H](NC(C)=O)C(=O)N[C@H]1CCC(=O)NCC[C@@H](C(=O)N[C@@H](CCCCN)C(N)=O)NC(=O)[C@H](CCCNC(=N)N)NC(=O)[C@@H](Cc2ccccc2)NC(=O)[C@H](Cc2c[nH]cn2)NC1=O) [Ac-Nle-cyclo(Glu-His-D-Phe-Arg-Dab)-Lys-NH2 (SEQ ID NO: 55)] | 91 |

Data request: May I ask what MC-1 Emax (average; cAMP HBL) has been recorded for Ac-[Nle]EH[dF]A[Dab]W-NH2 (lactam 2-6; SMILES CCCC[C@H](NC(C)=O)C(=O)N[C@H]1CCC(=O)NCC[C@@H](C(=O)N[C@@H](Cc2c[nH]c3ccccc23)C(N)=O)NC(=O)[C@H](C)NC(=O)[C@@H](Cc2ccccc2)NC(=O)[C@H](Cc2c[nH]cn2)NC1=O) [Ac-Nle-cyclo(Glu-His-D-Phe-Ala-Dab)-Trp-NH2] ?
Data returned: 72
